assay-procedure: chemical genetic growth profiling, strain panel (AID 1159580);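 note: tested at 20 µM; growth read once vehicle control cultures reached saturation at 30 °C; 1 = growth at the plate median or of vehicle wells; lower values mean less growth of the strain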
measurement-setup: S. cerevisiae deletion strains, growth OD, locus YML032C, strain rad52
The whole screen tested about 5,500 compounds, of which about 2,000 (36%) were called active. Roughly 18% stayed inconclusive and do not appear here. Cut-off read from the data, not from the text of the source: active = normalized growth mostly below about 0.91 (no sharp cut-off); inconclusive = no clear call, values can overlap the other calls; inactive = mostly above about 0.92. Some of the results follow.
Classes to choose from: T (active), F (inactive)

• CC12CCC3c4ccc(OC(=O)c5ccccc5)cc4CCC3C1CCC2O (stereo unspecified) = F
• CC12CCC3c4ccc(OCc5ccccc5)cc4CCC3C1C[C@@H](O)[C@@H]2O (stereo partly specified) = T
• CCOC(=O)c1c(C)cc(OC)cc1O = F

Incoming: Query: recorded result category for COC(=O)c1c(C)cc(OC)cc1O in this test
Outgoing: F

Incoming: Query: recorded result category for CCC(c1ccc(O)cc1)C(CC)c1ccc(O)cc1 (stereo unspecified) in this test
Outgoing: F

Incoming: Query: recorded result category for CC(C)(C)NCC(O)c1cc(O)cc(O)c1 (stereo unspecified) in this test
Outgoing: F

Incoming: Query: recorded result category for C[N+](C)(C)CC(O)CC(=O)O (stereo unspecified) in this test
Outgoing: F

Incoming: Query: recorded result category for COc1ccc2c(c1)CCC1C2CC[C@@]2(C)C1CC[C@@H]2O (stereo partly specified) in this test
Outgoing: T

Incoming: Query: recorded result category for Cc1cc(C2CCCCC2)n(O)c(=O)c1 in this test
Outgoing: T

Incoming: Query: recorded result category for CC/C(=C(/CC)c1ccc(O)cc1)c1ccc(O)cc1 in this test
Outgoing: F

Incoming: Query: recorded result category for CC(=O)OC1CN2CCC1CC2 (stereo unspecified) in this test
Outgoing: F

###

assay-procedure: chemical genetic growth profiling, strain panel (AID 1159580);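 note: tested at 20 µM; growth read once vehicle control cultures reached saturation at 30 °C; 1 = growth at the plate median or of vehicle wells; lower values mean less growth of the strain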
measurement-setup: S. cerevisiae deletion strains, growth OD, locus YFL009W, strain cdc4, stronger effect = lower value
The campaign covered roughly 5,500 compounds. About 2,000 (36%) were called active. Another 18% or so got no clear call; they are omitted. This is one part of the list.
measured-parameter: normalized growth

Example molecules with recorded normalized growth:
* Cc1cc(Oc2ccc(C(F)(F)F)cc2NS(C)(=O)=O)cc(C)c1Cl | 0.995 (inactive)
* c1ccc(-c2nnc(-c3ccccn3)nc2-c2ccccc2)cc1 | 0.812 (active)
* Cc1cc(Cl)ccc1NNC(=O)c1sccc1Cl | 0.893 (inactive)

Value of measured normalized growth for the entry Cc1ccc(C)n1-c1ccc(/C=C2/C(=O)Nc3ccccc32)cc1 : 0.947 (inactive)

Value of measured normalized growth for the entry Oc1c(Cl)cc(Cl)cc1C=Nc1ccc(Sc2ccccc2)nc1Sc1ccccc1 : 0.945 (inactive)

Value of measured normalized growth for the entry Cc1ccc(NNC(=O)c2cccs2)cc1Cl : 0.976 (inactive)

###

assay-procedure: chemical genetic growth profiling, strain panel (AID 1159580);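 note: tested at 20 µM; growth read once vehicle control cultures reached saturation at 30 °C; 1 = growth at the plate median or of vehicle wells; lower values mean less growth of the strain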
measurement-setup: S. cerevisiae deletion strains, growth OD, locus YNL248C, strain rpa49, stronger effect = lower value
The campaign covered roughly 5,500 compounds. About 2,000 (36%) were called active. Not shown: some 18% with an inconclusive outcome. Some of the results follow.
measured-parameter: normalized growth
No unit in the answer, please; the number alone is enough.

Example compounds with recorded normalized growth:
• CC(C)c1c(O)ccc2c1CCC1C(C)(C)CCC[C@]21C (stereo partly specified) = 0.989
• O=C1[O][Bi][O]c2ccccc21 = 1.07
• CC(=O)Oc1ccc2c(c1OC(C)=O)OCC1(O)Cc3c(cc(OC(C)=O)c(OC(C)=O)c3OC(C)=O)C21 (stereo unspecified) = 1.04
• CN(C)c1ccc2nc3ccc(=[N+](C)C)cc-3sc2c1 = 1.11
• NS(=O)(=O)c1cc(C2(O)NC(=O)c3ccccc32)ccc1Cl (stereo unspecified) = 1.02

Would you kindly look at the next entry?
Value of measured normalized growth for the entry Oc1cc2c(cc1O)C1c3ccc(O)c(O)c3OCC1(O)C2 (stereo unspecified) : 0.995
